Target: BTK-1h (Homo sapiens, UniProt Q06187)
Construct: The BTK kinase domain was diluted to 2 μM in the buffer, and 2 μM 1h was added; made in house
Sequence (Q06187 402-655): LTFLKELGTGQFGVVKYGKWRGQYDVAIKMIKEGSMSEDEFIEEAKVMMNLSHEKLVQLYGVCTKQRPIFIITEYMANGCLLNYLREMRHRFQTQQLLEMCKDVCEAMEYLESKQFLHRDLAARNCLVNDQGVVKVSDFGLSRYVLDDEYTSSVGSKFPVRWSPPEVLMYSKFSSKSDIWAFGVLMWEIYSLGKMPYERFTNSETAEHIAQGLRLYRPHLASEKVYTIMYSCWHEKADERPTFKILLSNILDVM
Assay: High-throughput screening with 1h-labeled BTK
Assay type: binding
Settings: Dataset S2A; 200 μM compound, BTK-1h, 32 °C, 10 min
Outcome: condition met for FI (650)/FI (620) of at least 1; condition not met for anything lower.

chemical structure	group
CC(=O)O[C@@H]1CC[C@@]2(C)[C@@H](CC[C@]3(C)[C@@H]2C(=O)C=C2[C@@H]4[C@@H](C)[C@H](C)CC[C@]4(C)CC[C@]23C)[C@@]1(C)C(=O)O	condition not met
COC[C@H]1C[C@@H](c2ncc(-c3ccc4c(c3)COc3cc5c(ccc6[nH]c([C@@H]7CC[C@H](C)N7C(=O)[C@@H](NC(=O)OC)C(C)C)nc65)cc3-4)[nH]2)N(C(=O)[C@H](NC(=O)OC)c2ccccc2)C1	condition not met
O=c1cc(-c2ccc(O)cc2)oc2cc(O)c(O)c(O)c12	condition met

Data origin, for the record: paper PMC8662641
